Where do these numbers come from? They come from patent US20190359687A1.

# Assayed system: T1, Cynomolgus monkey recombinant glycophorin A ectodomain (Cynomolgus monkey)
# T1 construct: extracellular domain
# Assay explanation: ELISA, Fab on coated recombinant cyno GPA ectodomain
Here the recorded binding in ELISA relative to parental Fab is given for each entry.

Requested field: binding in ELISA relative to parental Fab. Item: TPP-5699, Hu6C12-24 Fab variant VL: (S49A, P54Q) (Fab, V domains shown, Built on the parental Fab TPP-4935) VH: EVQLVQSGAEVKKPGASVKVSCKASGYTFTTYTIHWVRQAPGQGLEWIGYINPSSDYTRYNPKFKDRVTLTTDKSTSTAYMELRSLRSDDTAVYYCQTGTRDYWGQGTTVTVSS VL: DIQLTQSPSFLSASVGDRVTITCSAASSVSYIYWFQQKPGKAPKLLIYATSTLQSGVPSRFSGSGSGTEYTLTISSLQPEDFATYYCHQRNSFPFTFGQGTKLEIKR
0.8 relative to parental Fab

Entry under review: TPP-5907, humanized and germlined 6C12 Fab; VL: (S24R, A26S, S49A, P54Q, F95Y); VH: (I48M, S54G, D56G, D66G, L70M, T72R) (Fab, V domains shown) VH: EVQLVQSGAEVKKPGASVKVSCKASGYTFTTYTIHWVRQAPGQGLEWMGYINPGSGYTRYNPKFKGRVTMTRDKSTSTAYMELRSLRSDDTAVYYCQTGTRDYWGQGTTVTVSS VL: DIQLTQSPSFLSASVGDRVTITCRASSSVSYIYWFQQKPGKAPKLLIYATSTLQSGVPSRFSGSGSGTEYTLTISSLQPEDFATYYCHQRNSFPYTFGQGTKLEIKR . Reported binding in ELISA relative to parental Fab?
1.4 relative to parental Fab

Looking for the measured binding in ELISA relative to parental Fab of TPP-5838, Hu6C12-24 Fab variant VL: (S24R, A26S, S49A, P54Q, F95Y); VH: (I48M, D66G, L70M) (Fab, V domains shown, Built on the parental Fab TPP-4935) VH: EVQLVQSGAEVKKPGASVKVSCKASGYTFTTYTIHWVRQAPGQGLEWMGYINPSSDYTRYNPKFKGRVTMTTDKSTSTAYMELRSLRSDDTAVYYCQTGTRDYWGQGTTVTVSS VL: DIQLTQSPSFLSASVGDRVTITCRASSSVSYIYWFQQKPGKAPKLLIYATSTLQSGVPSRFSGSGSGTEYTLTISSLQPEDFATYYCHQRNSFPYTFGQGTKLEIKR , can you help?
1.1 relative to parental Fab

If you can, please state the reported binding in ELISA relative to parental Fab value of TPP-5698, Hu6C12-24 Fab variant VL: (S24R, A26S) (Fab, V domains shown, Built on the parental Fab TPP-4935) VH: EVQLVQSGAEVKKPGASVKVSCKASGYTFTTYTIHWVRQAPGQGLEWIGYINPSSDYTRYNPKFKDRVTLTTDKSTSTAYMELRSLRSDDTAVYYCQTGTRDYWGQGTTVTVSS VL: DIQLTQSPSFLSASVGDRVTITCRASSSVSYIYWFQQKPGKAPKLLIYSTSTLPSGVPSRFSGSGSGTEYTLTISSLQPEDFATYYCHQRNSFPFTFGQGTKLEIKR .
1 relative to parental Fab

Recorded binding in ELISA relative to parental Fab of TPP-5675, Hu6C12-24 Fab variant VH: (I48M, L70M, T72R) (Fab, V domains shown, Built on the parental Fab TPP-4935) VH: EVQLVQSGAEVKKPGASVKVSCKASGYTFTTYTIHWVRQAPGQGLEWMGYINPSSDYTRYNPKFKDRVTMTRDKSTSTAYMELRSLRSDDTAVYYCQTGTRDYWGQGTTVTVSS VL: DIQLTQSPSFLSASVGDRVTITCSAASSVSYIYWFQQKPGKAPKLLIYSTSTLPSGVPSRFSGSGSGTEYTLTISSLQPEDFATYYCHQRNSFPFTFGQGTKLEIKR , please.
1 relative to parental Fab
